# protocol_description: clinical
# reported_conditions: human, in vivo, po, AUCss (po)
property: AUC

Fill in: AUC of NC(=O)N1c2ccccc2C=Cc2ccccc21 [Carbamazepine, 5H-dibenz[b,f]azepine-5-carboxamide] is ___
87200 ng·h/mL

* * *

# protocol_description: Subset analysis of subjects on extended release CBZ twice daily: predicted IV vs observed oral steady-state Cmax, Cmin, AUC
# Type: in vivo, human
# reported_conditions: human, plasma, po, Median; N=47; observed, ER products, 12 hour dosing interval; read-out: Oral AUCss
property: AUC
Reply with the number, then its unit.

So what's the measured AUC for this one? NC(=O)N1c2ccccc2C=Cc2ccccc21 [Carbamazepine, 5H-dibenz[b,f]azepine-5-carboxamide]
96000 ng·h/mL

* * *

# protocol_description: Steady-state trough concentrations, oral observed vs IV predicted by the method of superposition
# Type: in vivo, human
# reported_conditions: observed; oral twice daily dosing; n=62 evaluable subjects
property: Co (oral only), mean oral steady-state trough plasma concentration
Answer by giving the amount and then stating its unit.

Reported Co (oral only), mean oral steady-state trough plasma concentration, compound NC(=O)N1c2ccccc2C=Cc2ccccc21 [Carbamazepine, 5H-dibenz[b,f]azepine-5-carboxamide] : ____
8.98 µg/mL

* * *

# protocol_description: clinical
# reported_conditions: human, in vivo, iv, CL
property: clearance (L/h/kg)
Answers are plain numbers, in L/h/kg.

Please give the measured clearance for this molecule: NC(=O)N1c2ccccc2C=Cc2ccccc21 [Carbamazepine, 5H-dibenz[b,f]azepine-5-carboxamide]
0.036

* * *

# protocol_description: Subset analysis of subjects on extended release CBZ twice daily: predicted IV vs observed oral steady-state Cmax, Cmin, AUC
# Format: in vivo, human
# reported_conditions: human, plasma, po, Maximum; N=47; observed, ER products, 12 hour dosing interval; read-out: Oral AUCss
property: AUC (µg·h/mL)
Numbers only, in µg·h/mL.

Query (compound): NC(=O)N1c2ccccc2C=Cc2ccccc21 [Carbamazepine, 5H-dibenz[b,f]azepine-5-carboxamide] ; field requested: AUC
168

* * *

# protocol_description: Subset analysis of subjects on extended release CBZ twice daily: predicted IV vs observed oral steady-state Cmax, Cmin, AUC
# Format: in vivo, human
# reported_conditions: human, plasma, po, Minimum; N=47; observed, ER products, 12 hour dosing interval; read-out: Oral AUCss
# Method: A subset analysis of the subject data (n=47), including only those subjects taking extended release (ER) formulations of CBZ twice daily (as indicated by the product label), was performed to compare predicted maximum and minimum exposures of CBZ at steady-state administered via IV infusion to those observed following oral administration. […]
property: AUC (ng·h/mL)
Give bare numbers, in ng·h/mL.

Give the measured AUC of NC(=O)N1c2ccccc2C=Cc2ccccc21 [Carbamazepine, 5H-dibenz[b,f]azepine-5-carboxamide] .
28500

* * *

# protocol_description: Subset analysis of subjects on extended release CBZ twice daily: predicted IV vs observed oral steady-state Cmax, Cmin, AUC
# Assay type: in vivo, human
# reported_conditions: human, plasma, iv, 95th Percentile; N=47; predicted, IV every 6 hours; read-out: IV AUCSS (mean F = 0.7)
property: AUC (µg·h/mL)
Numbers only, in µg·h/mL.

Look at this compound and give its reported AUC. NC(=O)N1c2ccccc2C=Cc2ccccc21 [Carbamazepine, 5H-dibenz[b,f]azepine-5-carboxamide]
257

* * *

# protocol_description: Subset analysis of subjects on extended release CBZ twice daily: predicted IV vs observed oral steady-state Cmax, Cmin, AUC
# Format: in vivo, human
# reported_conditions: human, plasma, po, 5th Percentile; N=47; observed, ER products, 12 hour dosing interval; read-out: Oral AUCss
property: AUC (ng·h/mL)
One number for each entry, in ng·h/mL.

Requested read-out: AUC. Entry: NC(=O)N1c2ccccc2C=Cc2ccccc21 [Carbamazepine, 5H-dibenz[b,f]azepine-5-carboxamide]
50100

* * *

# protocol_description: Steady-state trough concentrations, oral observed vs IV predicted by the method of superposition
# Assay type: in vivo, human
# reported_conditions: human, plasma, 100 mg; predicted by superposition; IV every six hours; mean F=0.70; N=62; read-out: C6 hr (IV only), mean steady-state plasma concentration at the 6-hour time-point
property: concentration at 6 h (ng/mL)
One number for each entry, in ng/mL.

Name the recorded concentration at 6 h for NC(=O)N1c2ccccc2C=Cc2ccccc21 [Carbamazepine, 5H-dibenz[b,f]azepine-5-carboxamide] .
8040

* * *

# protocol_description: Subset analysis of subjects on extended release CBZ twice daily: predicted IV vs observed oral steady-state Cmax, Cmin, AUC
# Assay type: in vivo, human
# reported_conditions: human, plasma, iv, Mean ± SD; N=47; predicted, IV every 6 hours; read-out: IV AUCSS (mean F = 0.7)
property: AUC (µg·h/mL)
Answers are plain numbers, in µg·h/mL.

Item under review: NC(=O)N1c2ccccc2C=Cc2ccccc21 [Carbamazepine, 5H-dibenz[b,f]azepine-5-carboxamide] . Reported AUC?
122

* * *

# protocol_description: clinical
# reported_conditions: human, in vivo, po, average oral bioavailability
property: bioavailability

Fill blank: measured bioavailability of the molecule NC(=O)N1c2ccccc2C=Cc2ccccc21 [Carbamazepine, 5H-dibenz[b,f]azepine-5-carboxamide] is ____.
65 to 75%

* * *

# protocol_description: Subset analysis of subjects on extended release CBZ twice daily: predicted IV vs observed oral steady-state Cmax, Cmin, AUC
# Format: in vivo, human
# reported_conditions: human, plasma, iv, Minimum; N=47; predicted, IV every 6 hours; read-out: IV AUCSS (mean F = 0.7)
property: AUC (ng·h/mL)
Numbers only, in ng·h/mL.

Please look up its AUC: NC(=O)N1c2ccccc2C=Cc2ccccc21 [Carbamazepine, 5H-dibenz[b,f]azepine-5-carboxamide]
26900

* * *

# protocol_description: Subset analysis of subjects on extended release CBZ twice daily: predicted IV vs observed oral steady-state Cmax, Cmin, AUC
# Type: in vivo, human
# reported_conditions: human, plasma, iv, Maximum; N=47; predicted, IV every 6 hours; read-out: IV AUCSS (mean F = 0.7)
property: AUC (µg·h/mL)
Give bare numbers, in µg·h/mL.

GET /values?readout=AUC&item= NC(=O)N1c2ccccc2C=Cc2ccccc21 [Carbamazepine, 5H-dibenz[b,f]azepine-5-carboxamide]
551

* * *

# protocol_description: Subset analysis of subjects on extended release CBZ twice daily: predicted IV vs observed oral steady-state Cmax, Cmin, AUC
# Assay type: in vivo, human
# reported_conditions: human, plasma, iv, 5th Percentile; N=47; predicted, IV every 6 hours; read-out: IV AUCSS (mean F = 0.7)
# Procedure: A subset analysis of the subject data (n=47), including only those subjects taking extended release (ER) formulations of CBZ twice daily (as indicated by the product label), was performed to compare predicted maximum and minimum exposures of CBZ at steady-state administered via IV infusion to those observed following oral administration. […]
property: AUC (ng·h/mL)
Give bare numbers, in ng·h/mL.

Recorded AUC for NC(=O)N1c2ccccc2C=Cc2ccccc21 [Carbamazepine, 5H-dibenz[b,f]azepine-5-carboxamide] , please?
43100

* * *

# protocol_description: clinical
# reported_conditions: human, in vivo, iv, 100 mg, AUC 0-° o
property: AUC (ng·h/mL)
Numbers only, in ng·h/mL.

Need AUC of NC(=O)N1c2ccccc2C=Cc2ccccc21 [Carbamazepine, 5H-dibenz[b,f]azepine-5-carboxamide] , thanks.
36500

* * *

# protocol_description: Subset analysis of subjects on extended release CBZ twice daily: predicted IV vs observed oral steady-state Cmax, Cmin, AUC
# Assay type: in vivo, human
# reported_conditions: human, plasma, po, Mean ± SD; N=47; observed, ER products, 12 hour dosing interval; read-out: Oral AUCss
property: AUC
Answer with the value and then the unit.

Value lookup for AUC; key = NC(=O)N1c2ccccc2C=Cc2ccccc21 [Carbamazepine, 5H-dibenz[b,f]azepine-5-carboxamide]
96800 ng·h/mL
